For each of the molecules below, state its pIC50.
test: Inhibition of bacterial NDM-1 using CDC-1 as substrate incubated for 30 mins; set-up: species or system Bacteria
# pIC50: negative log10 of molar concentration; output just the value

Query :: Returns the measured pIC50 for the input molecule. Input: CCO[C@H]1C(=O)N2C(C(=O)O)=C(CSC(=O)c3ccccc3)CS[C@H]12
Result :: 5.13

Query :: # get_value(readout='pIC50', item= CO[C@@]1(NC(=O)Cc2ccccc2)C(=O)N2C(C(=O)O)=C(CSC(=O)c3ccccc3)CS[C@@H]21 )
Result :: 5.02

Query :: Dear colleague, I am looking for the recorded pIC50 of the following molecule: CO[C@H]1C(=O)N2C(C(=O)O)=C(CSc3ccccc3)CS[C@H]12
Result :: 5.70

Query :: Fill in the blank: the reported pIC50 of CO[C@H]1C(=O)N2C(C(=O)O)=C(CSc3nc4ccccc4s3)CS[C@H]12 is ____.
Result :: 6.89

Query :: Which value of pIC50 has been reported for CO[C@H]1C(=O)N2C(C(=O)O)=C(CSc3nnc(C)s3)CS[C@H]12 in the records?
Result :: 6.26

Query :: pIC50 lookup needed for CO[C@H]1C(=O)N2C(C(=O)O)=C(CSc3nc4ccc([N+](=O)[O-])cc4s3)CS[C@H]12 , thanks.
Result :: 6.12

Query :: Using the record for CO[C@H]1C(=O)N2C(C(=O)O)=C(CSC(=O)c3ccccc3)C[S+]([O-])[C@H]12 (some centres undefined) , report its pIC50.
Result :: 6.60
